Where these numbers come from: patent US10259810B2

Provide the recorded % Activation for the entries that follow.
- STUDY_SYSTEM: ΔF508-CFTR (Homo sapiens, UniProt P13569, DEL508-508)
- Construct: host or cells: CFBE41o-, doxycycline-inducible
- Sequence (P13569 with tags, fused parts or gaps DEL508-508): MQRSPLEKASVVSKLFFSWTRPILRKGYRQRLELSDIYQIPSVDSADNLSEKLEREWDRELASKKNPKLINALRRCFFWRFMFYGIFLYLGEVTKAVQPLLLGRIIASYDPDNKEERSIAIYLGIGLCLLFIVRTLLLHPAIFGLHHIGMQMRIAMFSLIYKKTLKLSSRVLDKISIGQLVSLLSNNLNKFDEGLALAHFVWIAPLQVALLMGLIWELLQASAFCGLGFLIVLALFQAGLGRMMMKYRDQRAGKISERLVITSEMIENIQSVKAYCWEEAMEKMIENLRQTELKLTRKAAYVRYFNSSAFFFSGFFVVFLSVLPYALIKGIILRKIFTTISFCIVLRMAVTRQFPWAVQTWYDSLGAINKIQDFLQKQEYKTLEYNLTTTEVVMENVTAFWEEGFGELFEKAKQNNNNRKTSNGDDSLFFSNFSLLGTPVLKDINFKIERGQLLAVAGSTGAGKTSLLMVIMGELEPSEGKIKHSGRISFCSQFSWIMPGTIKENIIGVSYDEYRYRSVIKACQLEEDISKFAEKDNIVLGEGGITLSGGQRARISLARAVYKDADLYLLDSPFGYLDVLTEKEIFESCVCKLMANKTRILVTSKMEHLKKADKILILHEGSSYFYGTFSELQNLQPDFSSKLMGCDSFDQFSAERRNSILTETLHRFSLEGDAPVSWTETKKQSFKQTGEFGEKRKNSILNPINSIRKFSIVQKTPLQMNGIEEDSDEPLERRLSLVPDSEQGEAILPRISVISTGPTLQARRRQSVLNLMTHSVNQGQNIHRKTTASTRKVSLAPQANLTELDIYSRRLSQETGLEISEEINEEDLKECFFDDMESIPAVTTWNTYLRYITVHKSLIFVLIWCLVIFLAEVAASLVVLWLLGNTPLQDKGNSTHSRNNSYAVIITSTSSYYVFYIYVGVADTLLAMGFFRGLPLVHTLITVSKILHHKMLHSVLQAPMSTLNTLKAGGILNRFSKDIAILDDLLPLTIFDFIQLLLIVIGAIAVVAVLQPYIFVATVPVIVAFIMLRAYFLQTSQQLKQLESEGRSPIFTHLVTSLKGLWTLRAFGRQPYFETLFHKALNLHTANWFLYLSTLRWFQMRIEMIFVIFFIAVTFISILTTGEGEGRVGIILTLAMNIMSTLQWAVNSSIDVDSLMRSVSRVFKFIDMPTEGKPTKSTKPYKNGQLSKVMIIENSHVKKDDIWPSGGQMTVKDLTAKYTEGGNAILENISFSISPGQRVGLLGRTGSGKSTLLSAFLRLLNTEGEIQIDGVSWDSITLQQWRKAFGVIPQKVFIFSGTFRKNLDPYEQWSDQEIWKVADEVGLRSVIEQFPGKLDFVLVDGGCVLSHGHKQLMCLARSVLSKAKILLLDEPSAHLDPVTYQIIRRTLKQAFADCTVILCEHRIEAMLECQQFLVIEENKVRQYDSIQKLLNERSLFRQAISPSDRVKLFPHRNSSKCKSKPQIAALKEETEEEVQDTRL
- EXPERIMENT_DESCRIPTION: CFTR cell surface levels using HRP-tagged ΔF508-CFTR expressing CFBE cells, in the presence of a co-corrector
- Assay type: cell-based
- PROTOCOL_CONDITIONS: HRP-tagged ΔF508-CFTR CFBE cells, in the presence of 3 μM co-corrector
One number for each entry, in %.

Study these solved cases before continuing.
CC(C)COC1CCN(c2cc(C(=O)NS(C)(=O)=O)nc3c2c(C(C)C)nn3-c2ccc(F)cc2)CC1: 461.1
CC(C)c1nn(-c2ccc(F)cc2)c2nc(C(=O)NS(C)(=O)=O)cc(N3CCN(C4CCC4)CC3)c12: 323.37
Cc1cccc(-n2nc(C(C)C)c3c(N4CCC(CF)CC4)cc(C(=O)NS(C)(=O)=O)nc32)c1: 492.45

Please state % Activation for every compound in the list that follows.
1. CC(C)c1nn(-c2cccc(N(C)C)c2)c2nc(C(=O)NS(C)(=O)=O)cc(N3CCC(C#N)CC3)c12
2. CC(C)c1nn(-c2ccc(F)cc2)c2nc(C(=O)NS(C)(=O)=O)cc(OCC3(C)CC(F)(F)C3)c12
3. COCCN(C)C1CCN(c2cc(C(=O)NS(=O)(=O)N(C)C)nc3c2c(C2CCC2)nn3-c2ccc(F)cc2)CC1
4. C[C@@H](C1CCN(c2cc(C(=O)NS(=O)(=O)N(C)C)nc3c2c(C2CCC2)nn3-c2ccc(F)cc2)CC1)N1CCOCC1

Reply:
1: 490.4; 2: 321.1; 3: 384; 4: 545.77
